- ASSAY METHOD TEXT: Tmax in Sprague-Dawley rat at 300 mg/kg, po by LC-ESI-IT-TOF/MS analysis
- Type: ADME, organism-based
- EXPERIMENTAL PARAMETERS: in vivo
TEST READOUT: Tmax (min)
Answers are plain numbers, in min.

Consider `C[C@H](CC(=O)C[C@@H](C)[C@H]1C[C@H](O)[C@@]2(C)C3=C(C(=O)C[C@]12C)[C@@]1(C)CC[C@H](O)C(C)(C)[C@@H]1C[C@@H]3O)C(=O)O` . Its measured Tmax is 3.9

###

- SYSTEM NAME: DNA topoisomerase 1 (Homo sapiens)
- Sequence (P11387 whole entry): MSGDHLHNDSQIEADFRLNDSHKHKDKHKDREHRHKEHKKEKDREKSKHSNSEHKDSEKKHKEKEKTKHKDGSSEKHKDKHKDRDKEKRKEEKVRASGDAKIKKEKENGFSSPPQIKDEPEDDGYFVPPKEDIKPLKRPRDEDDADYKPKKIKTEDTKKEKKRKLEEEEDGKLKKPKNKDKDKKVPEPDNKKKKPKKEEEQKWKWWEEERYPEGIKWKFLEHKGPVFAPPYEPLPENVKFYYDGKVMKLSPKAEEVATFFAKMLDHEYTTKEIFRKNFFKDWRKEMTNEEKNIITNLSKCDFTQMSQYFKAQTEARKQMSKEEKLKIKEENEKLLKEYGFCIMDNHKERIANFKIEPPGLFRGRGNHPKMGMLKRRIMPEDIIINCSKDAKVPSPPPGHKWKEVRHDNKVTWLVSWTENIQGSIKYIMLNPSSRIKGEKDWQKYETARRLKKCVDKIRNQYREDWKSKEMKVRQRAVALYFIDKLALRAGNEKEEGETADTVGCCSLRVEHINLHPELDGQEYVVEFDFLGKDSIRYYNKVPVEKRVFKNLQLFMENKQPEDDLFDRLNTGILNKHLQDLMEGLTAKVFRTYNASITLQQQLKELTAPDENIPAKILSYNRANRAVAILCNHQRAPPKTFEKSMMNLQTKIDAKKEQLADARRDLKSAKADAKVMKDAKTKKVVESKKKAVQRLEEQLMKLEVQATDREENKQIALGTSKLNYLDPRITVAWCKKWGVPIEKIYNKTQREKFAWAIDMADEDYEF
- ASSAY METHOD TEXT: Inhibition of recombinant human topoisomerase-1-mediated relaxation of supercoiled pRYG DNA after 30 mins by ethidium bromide staining based assay
TEST READOUT: IC50 (µM)
Numbers only, in µM.

Consider `CC(=O)O[C@H]1C[C@H]([C@H](C)CC/C=C(\C)C(=O)O)[C@@]2(C)CC=C3C(=CC[C@H]4C(C)(C)[C@H](O)CC[C@]34C)[C@]12C` . Its measured IC50 is 25
